Ref: the supplement of paper PMC7877785

test: self-splicing fitness, log relative to wild type (ln ratio); higher = more splicing; Tetrahymena group I intron in knt gene, E. coli kanamycin selection, DiMSum; sequences stand for … in CUCUCU…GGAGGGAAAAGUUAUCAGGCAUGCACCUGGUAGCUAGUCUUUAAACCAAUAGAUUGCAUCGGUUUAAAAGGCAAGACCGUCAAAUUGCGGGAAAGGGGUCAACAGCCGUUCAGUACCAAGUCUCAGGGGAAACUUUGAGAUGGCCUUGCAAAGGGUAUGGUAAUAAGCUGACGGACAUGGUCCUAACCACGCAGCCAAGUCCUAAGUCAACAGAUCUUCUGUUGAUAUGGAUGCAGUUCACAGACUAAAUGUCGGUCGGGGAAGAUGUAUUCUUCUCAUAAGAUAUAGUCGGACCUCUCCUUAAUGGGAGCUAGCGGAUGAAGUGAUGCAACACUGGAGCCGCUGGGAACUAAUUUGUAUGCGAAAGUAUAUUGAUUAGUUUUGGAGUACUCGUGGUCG; conditions: 30 °C;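 further: selection with 25 µg/mL kanamycin versus none on LB agar overnight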
# Lookup of reported self-splicing fitness (ln) keyed by entry
Respond with the number and no other words.

AUCCAGCAAUAUUACGGGGU -4.35
AGUUAGCAAUAUUACGGACU -3.24
AUCUAGCAAUAUUACGAGCA -0.993
GUCCAGCAAUAUUACGUGCA -1.55
ACACAGCAAUAUUACGGCUU -0.496
UCGUAGCAAUAUUACGAAUG -2.01
UGGAAGCAAUAUUACGCUAG -0.433
ACCCAGCAAUAUUACGUUCG -3.74
GACAAGCAAUAUUACGUCAC -2.9
UGUCAGCAAUAUUACGUUCA -0.292

Query: Look at this sequence and give its reported self-splicing fitness (ln). `GACAAGCAAUAUUACGGUAG`
Result: -1.84

Query: Could you tell me which self-splicing fitness (ln) is on file for `AUUCAGCAAUAUUACGGACU` ?
Result: 0.0759

Query: Form field: reported self-splicing fitness (ln) of `CCAAAGCAAUAUUACGGAGG`
Result: -3.79

Query: Request the reported self-splicing fitness (ln) associated with `UGUGAGCAAUAUUACGAAGA`
Result: -2.48

Query: Value lookup for self-splicing fitness (ln); key = `UACUAGCAAUAUUACGAAAA`
Result: -2.6

Query: Look up self-splicing fitness (ln) for this sequence: `CGUCAGCAAUAUUACGGUGA`
Result: -2.52

Query: Entry `AUAUAGCAAUAUUACGUAAC` has what self-splicing fitness (ln)?
Result: -1.11

Query: Dear colleague, I am looking for the recorded self-splicing fitness (ln) of the following sequence: `GGUUAGCAAUAUUACGGAUU`
Result: 0.0654

Query: Look at this sequence and give its reported self-splicing fitness (ln). `AGGUAGCAAUAUUACGAACU`
Result: 0.0152

Query: Given the sequence `GUCCAGCAAUAUUACGUGCU` , what is its reported self-splicing fitness (ln)?
Result: -4.08

Query: Which self-splicing fitness (ln) value is on record for `AAAUAGCAAUAUUACGGGCA` ?
Result: -1.22

Query: I'd like to know its self-splicing fitness (ln). The sequence in question is `CCGCAGCAAUAUUACGAAAA`
Result: -3.37

Query: Report self-splicing fitness (ln) for `AAACAGCAAUAUUACGCAAG` please.
Result: -2.56

Query: May I ask what self-splicing fitness (ln) has been recorded for `AUCAAGCAAUAUUACGUUUA` ?
Result: -1.73

Query: Report self-splicing fitness (ln) for `UAGGAGCAAUAUUACGGGGU` please.
Result: -3.84

Query: Which self-splicing fitness (ln) reading was recorded for the sequence `UCGAAGCAAUAUUACGUCAA` ?
Result: -1.52

Query: Which self-splicing fitness (ln) value belongs to `GCGCAGCAAUAUUACGCCUC` ?
Result: 0.178

Query: Consider the sequence shown here: `GUCCAGCAAUAUUACGCCAU` What is its recorded self-splicing fitness (ln)?
Result: -2.78
